Tgt: acetylcholine receptor
Procedure text: SPR, receptor immobilized, peptide 10 uM
Readout name: Binding affinity (RU)

In the examples that follow, each entry is paired with its recorded Binding affinity (RU).
{"Binder": "KRQYQR [6mer-1-192]", "Observed value": 127}
{"Binder": "KKGVLR [6mer-1-181]", "Observed value": 148}

(A) KRVQLK [6mer-1-193]
(B) KPPGR [5mer-1049]
Challenge: Higher Binding affinity (RU) between A and B ? Mark your answer with the label of the selected entry.
Response given: A
(A: 149 RU, B: 29 RU)

Hey, just so you know, these numbers are from patent US20250011363A1.
